# maps each entry to its melting point
Endpoint: melting point

[[record]]
molecule = "CCCCNC(=O)CCCn1nnc2ccccc2c1=O [14b]"
result = "123 to 124 °C"

[[record]]
molecule = "CCCCCCCCNC(=O)CCCn1nnc2ccccc2c1=O [14f]"
result = "95 to 96 °C"

[[record]]
molecule = "CCCCCNC(=O)CCCn1nnc2ccccc2c1=O [14c]"
result = "106 to 107 °C"

[[record]]
molecule = "Cc1cc(C)cc(NC(=O)CCCn2nnc3ccccc3c2=O)c1 [14g]"
result = "110 to 111 °C"

[[record]]
molecule = "O=C(CCCn1nnc2ccccc2c1=O)Nc1ccc(Cl)cc1 [14i]"
result = "144 to 145 °C"

[[record]]
molecule = "CCCCCCCNC(=O)CCCn1nnc2ccccc2c1=O [14e]"
result = "100 to 101 °C"

[[record]]
molecule = "CCCNC(=O)CCCn1nnc2ccccc2c1=O [14a]"
result = "127 to 128 °C"

[[record]]
molecule = "Cc1cccc(NC(=O)CCCn2nnc3ccccc3c2=O)c1 [14l]"
result = "105 to 106 °C"

[[record]]
molecule = "O=C(CCCn1nnc2ccccc2c1=O)Nc1ccc(Br)cc1 [14h]"
result = "115 to 116 °C"

[[record]]
molecule = "O=C(CCCn1nnc2ccccc2c1=O)Nc1cccc(Cl)c1 [14j]"
result = "209 to 210 °C"

[[record]]
molecule = "COc1ccccc1NC(=O)CCCn1nnc2ccccc2c1=O [14m]"
result = "139 to 140 °C"

[[record]]
molecule = "Cc1ccc(NC(=O)CCCn2nnc3ccccc3c2=O)cc1 [14k]"
result = "175 to 176 °C"

[[record]]
molecule = "COc1ccc(NC(=O)CCCn2nnc3ccccc3c2=O)cc1 [14n]"
result = "147 to 148 °C"

[[record]]
molecule = "CCCCCCNC(=O)CCCn1nnc2ccccc2c1=O [14d]"
result = "102 to 103 °C"


---

Listed next: entries and their corresponding inhibition at 500 µM.
Target Under Test: Alpha-glucosidase (Saccharomyces cerevisiae)
Construct: purchased 5003-1KU Type I
Experimental Protocol: biochemical
Measurement Context: pH 6.8, read-out: Inhibition (%) at 0.5 mM
Experimental: The alpha-glucosidase inhibitory assay was performed by adopting the method of Pierre et al., with minor modifications. […] A quantity of 10 μL p-nitrophenyl-α-D-glucopyranoside (0.5 mM, N1377 from Sigma, Burlington, MA, USA) was added to initiate the reaction and tubes were incubated for 30 min. […] Free substrate change in absorbance was monitored at 400 nm. […] IC50 values were determined using EZ-Fit enzyme kinetics software version 5.03 (Perrella Scientific Inc. Amherst, Amherst, MA, USA).
Endpoint: inhibition at 500 µM (%)

[[record]]
compound = "CCCCCNC(=O)CCCn1nnc2ccccc2c1=O [14c]"
scale_unit = "%"
numeric_value = 42.3

[[record]]
compound = "Cc1ccc(NC(=O)CCCn2nnc3ccccc3c2=O)cc1 [14k]"
scale_unit = "%"
numeric_value = 94.2

[[record]]
compound = "CCCCNC(=O)CCCn1nnc2ccccc2c1=O [14b]"
scale_unit = "%"
numeric_value = 67.5

[[record]]
compound = "O=C(CCCn1nnc2ccccc2c1=O)Nc1cccc(Cl)c1 [14j]"
scale_unit = "%"
numeric_value = 89.3

[[record]]
compound = "CCCCCCCNC(=O)CCCn1nnc2ccccc2c1=O [14e]"
scale_unit = "%"
numeric_value = 40.2

[[record]]
compound = "CCCCCCCCNC(=O)CCCn1nnc2ccccc2c1=O [14f]"
scale_unit = "%"
numeric_value = 30.6

[[record]]
compound = "O=C(CCCn1nnc2ccccc2c1=O)Nc1ccc(Cl)cc1 [14i]"
scale_unit = "%"
numeric_value = 82.8

[[record]]
compound = "Cc1cccc(NC(=O)CCCn2nnc3ccccc3c2=O)c1 [14l]"
scale_unit = "%"
numeric_value = 92.6

[[record]]
compound = "COc1ccccc1NC(=O)CCCn1nnc2ccccc2c1=O [14m]"
scale_unit = "%"
numeric_value = 84.3

[[record]]
compound = "O=C(CCCn1nnc2ccccc2c1=O)Nc1ccc(Br)cc1 [14h]"
scale_unit = "%"
numeric_value = 74.2

[[record]]
compound = "COc1ccc(NC(=O)CCCn2nnc3ccccc3c2=O)cc1 [14n]"
scale_unit = "%"
numeric_value = 87.5

[[record]]
compound = "Cc1cc(C)cc(NC(=O)CCCn2nnc3ccccc3c2=O)c1 [14g]"
scale_unit = "%"
numeric_value = 78.3

[[record]]
compound = "CCCCCCNC(=O)CCCn1nnc2ccccc2c1=O [14d]"
scale_unit = "%"
numeric_value = 66.2

[[record]]
compound = "CCCNC(=O)CCCn1nnc2ccccc2c1=O [14a]"
scale_unit = "%"
numeric_value = 39.1


---

Target Under Test: Alpha-glucosidase (Saccharomyces cerevisiae, UniProt P53341)
Sequence (P53341 whole entry): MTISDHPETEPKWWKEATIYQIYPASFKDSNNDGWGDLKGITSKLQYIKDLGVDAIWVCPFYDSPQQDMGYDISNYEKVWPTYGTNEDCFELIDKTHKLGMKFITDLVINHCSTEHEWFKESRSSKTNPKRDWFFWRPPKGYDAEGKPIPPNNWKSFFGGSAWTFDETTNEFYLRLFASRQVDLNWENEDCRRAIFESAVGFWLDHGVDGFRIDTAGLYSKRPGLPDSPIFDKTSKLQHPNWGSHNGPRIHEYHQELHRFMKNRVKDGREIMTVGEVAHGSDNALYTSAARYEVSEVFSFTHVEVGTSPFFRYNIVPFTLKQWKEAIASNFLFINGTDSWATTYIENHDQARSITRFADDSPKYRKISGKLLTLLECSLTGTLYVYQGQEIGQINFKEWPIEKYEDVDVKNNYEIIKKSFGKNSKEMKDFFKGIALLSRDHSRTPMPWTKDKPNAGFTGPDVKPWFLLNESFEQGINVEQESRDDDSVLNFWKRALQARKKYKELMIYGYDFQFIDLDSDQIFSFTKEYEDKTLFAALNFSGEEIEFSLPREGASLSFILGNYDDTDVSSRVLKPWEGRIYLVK
pIC50: −log10 of the molar value.
Endpoint: pIC50

[[record]]
molecule = "CCCCCCNC(=O)CCCn1nnc2ccccc2c1=O [14d]"
numeric_value = 3.47

[[record]]
molecule = "O=C(CCCn1nnc2ccccc2c1=O)Nc1cccc(Cl)c1 [14j]"
numeric_value = 4.28

[[record]]
molecule = "O=C(CCCn1nnc2ccccc2c1=O)Nc1ccc(Cl)cc1 [14i]"
numeric_value = 3.79

[[record]]
molecule = "Cc1cccc(NC(=O)CCCn2nnc3ccccc3c2=O)c1 [14l]"
numeric_value = 4.49

[[record]]
molecule = "Cc1ccc(NC(=O)CCCn2nnc3ccccc3c2=O)cc1 [14k]"
numeric_value = 4.57

[[record]]
molecule = "O=C(CCCn1nnc2ccccc2c1=O)Nc1ccc(Br)cc1 [14h]"
numeric_value = 3.62

[[record]]
molecule = "Cc1cc(C)cc(NC(=O)CCCn2nnc3ccccc3c2=O)c1 [14g]"
numeric_value = 3.71

[[record]]
molecule = "COc1ccc(NC(=O)CCCn2nnc3ccccc3c2=O)cc1 [14n]"
numeric_value = 4.12

[[record]]
molecule = "COc1ccccc1NC(=O)CCCn1nnc2ccccc2c1=O [14m]"
numeric_value = 3.92

[[record]]
molecule = "CCCCNC(=O)CCCn1nnc2ccccc2c1=O [14b]"
numeric_value = 3.61

